Data credit: patent US6197225A

Assay: Photochromic properties of cast polymer (2 mm thick) under xenon lamp irradiation for 120 seconds
Format: physicochemical
Settings: single chromene compound 0.04% by weight in polymer, 120 seconds, 20° C.; Table 5
Decision: Color density ε(120)-ε(0) compared against 0.9; not below it gives condition met, below it gives condition not met.

compound	class.label
CC(C)(C)c1cc2ccccc2c2c1C=CC1(O2)C2CC3CC(C2)CC1C3 (centres unmarked) [Compound 24]	condition not met
CCOc1ccc(C2(c3ccc(OCC)cc3)C=Cc3c(C)cc4ccccc4c3O2)cc1 [Compound 29]	condition met
COc1ccc(C2(c3cccs3)C=Cc3c(C)cc4ccccc4c3O2)cc1 (centres unmarked) [Compound 32]	condition met
COc1ccc2c3c(c(C(C)Cc4ccccc4)cc2c1)C=CC(c1ccccc1)(c1cccn1C)O3 (centres unmarked) [Compound 8]	condition not met
CCC(C)c1cc2ccccc2c2c1C=CC1(O2)C2CCCC1CCC2 (centres unmarked) [Compound 23]	condition not met
COc1ccc(C2(c3ccc(OC)cc3)C=Cc3c(C)cc4c(OC)cccc4c3O2)cc1 [Compound 33]	condition met
CCC(C)(CC)c1cc2ccccc2c2c1C=CC(c1ccc(OC)c(F)c1)(c1ccc(OC)c(F)c1)O2 [Compound 5]	condition not met
COc1ccc(C2(c3ccc(OC(F)(F)F)cc3)C=Cc3c(C)cc4ccccc4c3O2)cc1 (centres unmarked) [Compound 30]	condition met
COc1ccc(C2(c3ccc(OC)c(F)c3)C=Cc3c(C)cc4ccccc4c3O2)cc1 (centres unmarked) [Compound 34]	condition met
CCOC(=O)C1=CC(c2ccccc2)(c2ccccc2)Oc2c1cc(C)c1ccccc21 [b, reference compound]	condition met
CC(C)(C)c1cc2ccccc2c2c1C=CC(c1ccccc1)(c1cccs1)O2 (centres unmarked) [Compound 6]	condition not met
CC(=O)Oc1ccc2c3c(c(C(C)C)cc2c1)C=CC(c1ccc(C)cc1)(c1ccc(C)cc1)O3 [Compound 10]	condition not met
CC(C)(C)c1cc2ccccc2c2c1C=CC1(CC3CCC1C3)O2 (centres unmarked) [Compound 18]	condition not met
Cc1cc2ccccc2c2c1C=CC(c1ccccc1)(c1ccccc1)O2 [c, reference compound]	condition met
CCOC(=O)c1c2c(c3ccccc3c1C)OC1(C=C2)C2CCCC1CCC2 (centres unmarked) [f, reference compound]	condition not met

* * *

Test: Photochromic properties of cast polymer (2 mm thick) under xenon lamp irradiation for 120 seconds
Assay type: physicochemical
Settings: single chromene compound 0.04% by weight in polymer, 120 seconds, 20° C.; Table 5
# label = bin(measured Color density ε(120)-ε(0)), where bins are LOW (below 0.7), MID (0.7 to below 1), HIGH (1 or more)

molecule	class.label
COc1ccc(C2(c3ccc(OC)cc3)C=Cc3c(C)cc4cc(-c5ccccc5)ccc4c3O2)cc1	HIGH
CC(C)c1cc2ccccc2c2c1C=CC1(O2)C2CCC1CC2 (centres unmarked)	LOW
COc1ccc(C2(c3ccc(OC)c(F)c3)C=Cc3c(C(C)C)cc4ccccc4c3O2)cc1F	MID
COc1ccc(C2(c3ccc(OC(F)(F)F)cc3)C=Cc3c(C(C)C)cc4ccccc4c3O2)cc1 (centres unmarked)	MID
COc1ccc(C2(c3ccc(OC)c(F)c3)C=Cc3c(C)cc4ccccc4c3O2)cc1F	HIGH
CC(C)c1cc2ccccc2c2c1C=CC(c1ccccc1)(c1ccc(OC(F)(F)F)cc1)O2 (centres unmarked)	MID
CC(C)(C)c1cc2ccccc2c2c1C=CC1(O2)C2CCCC1CCC2 (centres unmarked)	LOW
CC(C)c1cc2ccccc2c2c1C=CC1(O2)C2CCCC1CCC2 (centres unmarked)	LOW
COc1ccc(C2(c3ccco3)C=Cc3c(C)cc4ccccc4c3O2)cc1F (centres unmarked)	HIGH
CCCc1cc2ccccc2c2c1C=CC(c1ccc(OC)cc1)(c1ccc(OC)cc1)O2	MID
CC(C)c1cc2cc(O)ccc2c2c1C=CC(c1cccs1)(c1cccs1)O2	LOW
COc1ccc(C2(c3ccc(OC)cc3)C=Cc3c(C)cc4ccccc4c3O2)cc1	HIGH
CC(C)(C)c1cc2ccccc2c2c1C=CC1(O2)C2(Cl)CCCC1(Cl)CCC2 (centres unmarked)	LOW
CC(C)c1cc2ccccc2c2c1C=CC(c1ccccc1)(c1ccc3ccccc3c1)O2 (centres unmarked)	MID
